The reader will find reported viability, T/C values listed item by item below.
assay-name: Anticancer human tumor 997537-175-T-J1-PDC patient-derived colon adenocarcinoma cell line growth inhibition [POLQ];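 further: luminescence signal used as a surrogate for viable cells; spheroids exposed to drugs for seven days before readout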
measurement-parameters: 997537-175-T-J1-PDC complex spheroid viability, combination with POLQ inhibitors; second compound 3.16 µM; first compound 3.16 µM; active compounds read low
Protocol: Multicellular complex tumor spheroid response to Polymerase (POL) inhibitors (novobiocin, ART-558, RP6685) in combination with a variety of drugs and investigational agents in selected tumor cell lines The POL inhibitors (novobiocin, ART-558, and RP6685) were evaluated both individually and in combination with standard of care and investigational anticancer small molecules within a complex spheroid model of solid tumors. . […]

{"compound": "Nc1ccn(C2OC(CO)C(O)C2(F)F)c(=O)n1 (stereo not given) + COC1C(OC(N)=O)C(O)C(Oc2ccc3c(O)c(NC(=O)c4ccc(O)c(CC=C(C)C)c4)c(=O)oc3c2C)OC1(C)C", "viability, T/C": "71.7%"}
{"compound": "CNCc1ccc(-c2[nH]c3cc(F)cc4c3c2CCNC4=O)cc1 + COC1C(OC(N)=O)C(O)C(Oc2ccc3c(O)c(NC(=O)c4ccc(O)c(CC=C(C)C)c4)c(=O)oc3c2C)OC1(C)C", "viability, T/C": "85.8%"}
{"compound": "CCc1cc2c(N3CCc4c(cc(Cn5ccnc5)cc4-c4cn(C)nc4C(F)(F)F)C3=O)cc(C)nc2c(OC)n1 + Cc1cccc(N(C)C(=O)C2C(O)CCN2c2nc(C)cc(C(F)(F)F)c2C#N)c1", "viability, T/C": "61.6%"}
{"compound": "CCCS(=O)(=O)Nc1ccc(F)c(C(=O)c2c[nH]c3ncc(-c4ccc(Cl)cc4)cc23)c1F + Cc1cccc(N(C)C(=O)C2C(O)CCN2c2nc(C)cc(C(F)(F)F)c2C#N)c1", "viability, T/C": "75.1%"}
{"compound": "CNCc1ccc(-c2[nH]c3cc(F)cc4c3c2CCNC4=O)cc1 + Nc1ccc(C#CCN(C(=O)Cc2ncc(C(F)(F)F)cc2C(F)(F)F)c2ccc(F)cc2)nn1", "viability, T/C": "96.2%"}
{"compound": "COc1cc2cc(C(=O)CCC(=O)O)sc2cc1OC + Cc1cccc(N(C)C(=O)C2C(O)CCN2c2nc(C)cc(C(F)(F)F)c2C#N)c1", "viability, T/C": "115%"}
{"compound": "COc1ccc([C@@H](O)c2cc(-c3ncnc4cc(N5CCOCC5)ccc34)c(F)cc2Cl)nn1 + Cc1cccc(N(C)C(=O)C2C(O)CCN2c2nc(C)cc(C(F)(F)F)c2C#N)c1", "viability, T/C": "88.8%"}
{"compound": "CCCS(=O)(=O)Nc1ccc(F)c(C(=O)c2c[nH]c3ncc(-c4ccc(Cl)cc4)cc23)c1F + COC1C(OC(N)=O)C(O)C(Oc2ccc3c(O)c(NC(=O)c4ccc(O)c(CC=C(C)C)c4)c(=O)oc3c2C)OC1(C)C", "viability, T/C": "78%"}
{"compound": "CC1COCCN1c1cc(C2(O)CC3CCC(C2)O3)c2cnn(-c3ccn[nH]3)c2n1 (stereo not given) + COC1C(OC(N)=O)C(O)C(Oc2ccc3c(O)c(NC(=O)c4ccc(O)c(CC=C(C)C)c4)c(=O)oc3c2C)OC1(C)C", "viability, T/C": "61.7%"}
{"compound": "CCc1cc2c(N3CCc4c(cc(Cn5ccnc5)cc4-c4cn(C)nc4C(F)(F)F)C3=O)ccnc2c(OC)n1 + Cc1cccc(N(C)C(=O)C2C(O)CCN2c2nc(C)cc(C(F)(F)F)c2C#N)c1", "viability, T/C": "81.7%"}
{"compound": "CNCc1ccc(-c2[nH]c3cc(F)cc4c3c2CCNC4=O)cc1 + Cc1cccc(N(C)C(=O)C2C(O)CCN2c2nc(C)cc(C(F)(F)F)c2C#N)c1", "viability, T/C": "82.1%"}
{"compound": "CCc1cc2c(N3CCc4c(cc(Cn5ccnc5)cc4-c4cn(C)nc4C(F)(F)F)C3=O)cc(C)nc2c(OC)n1 + COC1C(OC(N)=O)C(O)C(Oc2ccc3c(O)c(NC(=O)c4ccc(O)c(CC=C(C)C)c4)c(=O)oc3c2C)OC1(C)C", "viability, T/C": "49.8%"}
{"compound": "CC(C)n1c(=O)n(C)c2cnc3cc(F)c(-c4ccc(OCCCN5CCCCC5)nc4)cc3c21 + Nc1ccc(C#CCN(C(=O)Cc2ncc(C(F)(F)F)cc2C(F)(F)F)c2ccc(F)cc2)nn1", "viability, T/C": "97.8%"}
{"compound": "CC1COCCN1c1cc(C2(S(C)(=N)=O)CC2)nc(-c2ccnc3[nH]ccc23)n1 (stereo not given) + Cc1cccc(N(C)C(=O)C2C(O)CCN2c2nc(C)cc(C(F)(F)F)c2C#N)c1", "viability, T/C": "78.3%"}
{"compound": "Nc1ccn(C2OC(CO)C(O)C2(F)F)c(=O)n1 (stereo not given) + Cc1cccc(N(C)C(=O)C2C(O)CCN2c2nc(C)cc(C(F)(F)F)c2C#N)c1", "viability, T/C": "86.1%"}
